Assay protocol: Stability in rat liver microsomes
Format: ADME, microsome
Particulars: read-out: Stability
Metric name: microsomal CLint (µL/min/mg)
Expressed in µL/min/mg, but write only the number.

| Structure string | Metric name | Number |
| --- | --- | --- |
| CC(=O)N1CC[C@H]2CCN(c3ncnc4[nH]ccc34)[C@H]2C1 | microsomal CLint | 25 |

Asked: Which microsomal CLint value belongs to C=CC(=O)N1CC[C@H]2CCN(c3ncnc4[nH]ccc34)[C@H]2C1 ?
Given back: 70

----------
Assay protocol: Half-life in rat blood
Format: ADME, tissue-based
Metric name: half-life (h)
Expressed in h, but write only the number.

Asked: Given C=CC(=O)N1C[C@H](Nc2ncnc3[nH]ccc23)CC[C@@H]1C , state its recorded half-life.
Given back: 2.68
